System: c-Abl (mouse);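 further: 11-residue human phosphosite peptides and single-mutation variants displayed on the E. coli surface, counted by deep sequencing, each peptide's frequency after selection divided by its frequency in the unselected input library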;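 further: frequency after pTyr selection over input frequency; kinase dosed for 20-30% of maximal phosphorylation in three min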
Assay: phosphorylation enrichment, bacterial display (enrichment ratio); higher = better substrate or ligand; peptides without Tyr show the background
Quick reference for phosphorylation enrichment among some sequences
Please respond with just the number, no unit label.

KQQEIYQELTQ [CD209_Y239]
1.77
RRFVFYFSFLL [PTEN_Y177_YF]
0.502
FEEDSYSHIMA [FDPS_Y388_YF]
0.671
KGELRYMHSRV [ABCD1_Y281]
0.517

Ask | What value of phosphorylation enrichment has been recorded for this entry: LLSVAYKNVVR [YWHAZ_Y48_G53R]
Reply | 1.2

Ask | Now try SGGGLYRDMGA [CBX8_Y321] .
Reply | 0.502
